tested_target: T1, human gastric inhibitory peptide receptor (GIPR) (human, UniProt P48546 22-466); note: reference of the scale not given here
T1 sequence (looked up): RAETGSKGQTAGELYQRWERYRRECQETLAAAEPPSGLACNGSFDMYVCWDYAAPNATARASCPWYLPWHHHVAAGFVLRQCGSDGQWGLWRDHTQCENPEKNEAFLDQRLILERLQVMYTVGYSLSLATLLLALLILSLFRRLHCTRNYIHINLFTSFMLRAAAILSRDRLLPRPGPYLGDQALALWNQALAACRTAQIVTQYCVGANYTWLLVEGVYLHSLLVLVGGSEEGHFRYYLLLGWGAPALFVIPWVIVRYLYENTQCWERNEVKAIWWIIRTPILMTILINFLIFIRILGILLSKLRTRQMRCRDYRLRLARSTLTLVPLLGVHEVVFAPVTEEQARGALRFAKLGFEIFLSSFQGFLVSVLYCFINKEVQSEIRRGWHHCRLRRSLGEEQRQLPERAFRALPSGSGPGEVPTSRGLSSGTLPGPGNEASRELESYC
run_description: cell-based or functional assay
reported_endpoint: hGIPR cAMP EC50 ratio
Give bare numbers.

{"columns": ["binder", "reported_endpoint", "assay_result"],
 "data": [
  ["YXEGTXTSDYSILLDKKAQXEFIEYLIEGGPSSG (Aib2, αMeF6, (2-[2-(2-Amino-ethoxy)-ethoxy]-acetyl)2-(γ-Glu)-CO-(CH2)16-CO2H on K17, Aib20, C-terminal NH2) [Example 308]", "hGIPR cAMP EC50 ratio", 4.06],
  ["XXEGTFTSDYSIXLDXKAQXAFIXYLIEGGPSSGAPPPS (D-Tyr1, Aib2, αMeL13, Orn16, (2-[2-(2-Amino-ethoxy)-ethoxy]-acetyl)2-(γ-Glu)-CO-(CH2)18-CO2H on K17, Aib20, D-Glu24, C-terminal NH2) [Example 357]", "hGIPR cAMP EC50 ratio", 0.366],
  ["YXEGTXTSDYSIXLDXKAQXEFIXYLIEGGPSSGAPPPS (Aib2, αMeF(2F)6, Nle13, Orn16, (2-[2-(2-Amino-ethoxy)-ethoxy]-acetyl)2-(γ-Glu)-CO-(CH2)16-CO2H on K17, Aib20, D-Glu24, C-terminal NH2) [Example 249]", "hGIPR cAMP EC50 ratio", 3.84],
  ["FXEGTFTSDYSIXLDKKAQXAFIEYLIEGGPSSGAPPPS (Aib2, αMeL13, (2-[2-(2-Amino-ethoxy)-ethoxy]-acetyl)2-(γ-Glu)-CO-(CH2)18-CO2H on K17, Aib20, C-terminal NH2) [Example 327]", "hGIPR cAMP EC50 ratio", 1.47]
]}

Below are 2 binders. Give each one its hGIPR cAMP EC50 ratio.
1. YXEGTXTSDYSILLDKKAQXEFIEYLIAGGPSSG (Aib2, αMeF6, (2-[2-(2-Amino-ethoxy)-ethoxy]-acetyl)2-(γ-Glu)-CO-(CH2)16-CO2H on K17, Aib20, C-terminal NH2) [Example 310]
2. XXEGTFTSDYSIXLDKKAQXAFIXYLIAGGPSSGAPPPS (D-Tyr1, Aib2, αMeL13, (2-[2-(2-Amino-ethoxy)-ethoxy]-acetyl)2-(γ-Glu)-CO-(CH2)18-CO2H on K17, Aib20, D-Glu24, C-terminal NH2) [Example 352]

Marked response:
5.56
0.815

Below are 4 binders. Give each one its hGIPR cAMP EC50 ratio.
1. YXEGTFTSDYSIXLDKKAQXEFIEYLIAGGPSSG (Aib2, αMeL13, (2-[2-(2-Amino-ethoxy)-ethoxy]-acetyl)2-(γ-Glu)-CO-(CH2)16-CO2H on K17, Aib20, C-terminal NH2) [Example 306]
2. XXEGTFTSDYSIXLDEKAQXEFIEYLIAGGPSSGAPPPS (not fully specified; D-Tyr1, Aib2, αMeL13, (2-[2-(2-Amino-ethoxy)-ethoxy]-acetyl)2-(γ-Glu)-CO-(CH2)18-CO2H on K17, Aib20, C-terminal NH2) [Example 342]
3. YXEGTFTSDYSILLDKKAQSAFIEYLIEGGPSSGAPPPS (Aib2, (2-[2-(2-Amino-ethoxy)-ethoxy]-acetyl)2-(γ-Glu)-CO-(CH2)18-CO2H on K17, C-terminal NH2) [Example 263]
4. YXEGTFTSDYSIXLDKKAQXAFIEYLIAGGPSSGAPPPS (Aib2, αMeL13, (2-[2-(2-Amino-ethoxy)-ethoxy]-acetyl)2-(γ-Glu)-CO-(CH2)1s-CO2H (so in the source); probably (CH2)18) on K17, Aib20, C-terminal NH2) [Example 324]

Marked response:
3.97
0.32
0.473
2.13

Below are 7 binders. Give each one its hGIPR cAMP EC50 ratio.
1. YXEGTXTSDYSILLDKKAQXAFIEYLIAGGPSSG (Aib2, αMeF(2F)6, (2-[2-(2-Amino-ethoxy)-ethoxy]-acetyl)2-(γ-Glu)-CO-(CH2)16-CO2H on K17, Aib20, C-terminal NH2) [Example 313]
2. YXEGTFTSDYSILLDKKAQTAFIEYLIEGGPSSGAPPPS (Aib2, (2-[2-(2-Amino-ethoxy)-ethoxy]-acetyl)2-(γ-Glu)-CO-(CH2)18-CO2H on K17, C-terminal NH2) [Example 262]
3. FXEGTFTSDYSIXLDKKAQXAFIEYLIAGGPSSGAPPPS (not fully specified; Aib2, αMeL13, (2-[2-(2-Amino-ethoxy)-ethoxy]-acetyl)2-(γ-Glu)-CO-(CH2)18-CO2H on K17, Aib20, C-terminal NH2) [Example 337]
4. YXEGTXTSDYSILLDEKAQXAFIEYLIEGGPSSG (Aib2, αMeF(2F)6, (2-[2-(2-Amino-ethoxy)-ethoxy]-acetyl)2-(γ-Glu)-CO-(CH2)16-CO2H on K17, Aib20, C-terminal NH2) [Example 311]
5. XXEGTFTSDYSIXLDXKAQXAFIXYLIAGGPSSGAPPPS (D-Tyr1, Aib2, αMeL13, Orn16, (2-[2-(2-Amino-ethoxy)-ethoxy]-acetyl)2-(γ-Glu)-CO-(CH2)18-CO2H on K17, Aib20, D-Glu24, C-terminal NH2) [Example 291]
6. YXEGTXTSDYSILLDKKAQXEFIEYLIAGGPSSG (Aib2, αMeF(2F)6, (2-[2-(2-Amino-ethoxy)-ethoxy]-acetyl)2-(γ-Glu)-CO-(CH2)16-CO2H on K17, Aib20, C-terminal NH2) [Example 314]
7. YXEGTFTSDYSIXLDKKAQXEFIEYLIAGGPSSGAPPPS (Aib2, αMeL13, (2-[2-(2-Amino-ethoxy)-ethoxy]-acetyl)2-(γ-Glu)-CO-(CH2)18-CO2H on K17, Aib20, C-terminal NH2) [Example 289]

Marked response:
[2.87, 1.15, 1.18, 3.5, 0.746, 2.81, 4.13]

Below are 3 binders. Give each one its hGIPR cAMP EC50 ratio.
1. XXEGTFTSDYSIXLDXKAQXEFIXYLIEGGPSSGAPPPS (D-Tyr1, Aib2, αMeL13, Orn16, (2-[2-(2-Amino-ethoxy)-ethoxy]-acetyl)2-(γ-Glu)-CO-(CH2)18-CO2H on K17, Aib20, D-Glu24, C-terminal NH2) [Example 355]
2. XXEGTXTSDYSILLDKKAQXAFIEYLIEGGPSSGAPPPS (D-Tyr1, Aib2, αMeF6, (2-[2-(2-Amino-ethoxy)-ethoxy]-acetyl)2-(γ-Glu)-CO-(CH2)18-CO2H on K17, Aib20, C-terminal NH2) [Example 329]
3. YXEGTFTSDYSIXLDEKAQXAFIEYLIEGGPSSG (Aib2, αMeL13, (2-[2-(2-Amino-ethoxy)-ethoxy]-acetyl)2-(γ-Glu)-CO-(CH2)16-CO2H on K17, Aib20, C-terminal NH2) [Example 303]

Marked response:
[0.111, 0.687, 4.2]
